- Test system: Phospho-ERK levels in KYSE-520 cells
- assay_info: ERK Phosphorylation (Phospho-ERK) Target Engagement Assay (HTRF)
- Type: cell-based
- setup_conditions: Homo sapiens, 2 hr compound incubation, phospho-ERK1/2 HTRF kit, read-out: pERK target engagement assay Avg IC50
observable: pIC50
// pIC50 here means minus log10 of the molar concentration (mol/L)

Look over these answered cases.
Clc1cccc(-c2n[nH]c3nc(N4CCC5(CCNC5)CC4)cnc23)c1Cl [Example 2]; 6.77
N[C@@H]1[C@H]2CN(c3cnc4c(-c5cccc(Cl)c5Cl)n[nH]c4n3)C[C@@H]12 [Example 3]; 6.49
CNC1(C)CCN(c2cnc3c(-c4cccc(Cl)c4Cl)n[nH]c3n2)CC1 [Example 6]; 6.91
CC1(N)CCN(c2cnc3c(-c4cccc(Cl)c4Cl)n[nH]c3n2)CC1 [Example 1]; 7.31

CC1(CN)CCN(c2cnc3c(-c4cccc(Cl)c4Cl)n[nH]c3n2)CC1 [Example 4] has a reported pIC50 of 7.14

---

- target: PTPN11-E76K mutant enzyme (Homo sapiens (Human), UniProt Q06124, E76K)
- Sequence (Q06124 whole entry E76K): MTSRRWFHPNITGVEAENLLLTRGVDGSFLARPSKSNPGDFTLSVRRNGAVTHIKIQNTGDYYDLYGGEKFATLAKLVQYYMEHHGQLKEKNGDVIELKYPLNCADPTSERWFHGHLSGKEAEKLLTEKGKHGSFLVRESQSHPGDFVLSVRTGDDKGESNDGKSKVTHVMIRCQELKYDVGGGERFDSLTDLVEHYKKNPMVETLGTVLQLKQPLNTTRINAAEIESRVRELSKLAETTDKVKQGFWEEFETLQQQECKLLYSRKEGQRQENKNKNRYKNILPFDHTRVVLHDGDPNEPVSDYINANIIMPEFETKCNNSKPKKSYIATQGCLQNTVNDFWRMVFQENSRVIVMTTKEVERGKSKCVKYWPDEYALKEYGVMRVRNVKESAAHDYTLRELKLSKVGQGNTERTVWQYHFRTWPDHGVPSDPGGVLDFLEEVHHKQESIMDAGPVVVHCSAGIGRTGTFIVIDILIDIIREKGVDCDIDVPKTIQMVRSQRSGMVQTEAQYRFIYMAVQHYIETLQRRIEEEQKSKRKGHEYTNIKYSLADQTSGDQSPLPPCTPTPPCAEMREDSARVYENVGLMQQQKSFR
- assay_info: PTPN11 Enzymatic Assay (DiFMUP phosphatase activity)
- Type: biochemical
- setup_conditions: full length PTPN11-E76K mutant enzyme 250 pM, DiFMUP 50 μM, 30 min preincubation; read-out: PTPN11-E76K Avg IC50
- Procedure: Reaction was initiated by addition of DiFMUP (50 μM) at room temperature in 384-well black plate with a final reaction volume of 20 uL in assay buffer. […] Dose-response curves were analyzed using IC50 regression curve fitting (GeneData Screener). Curves were normalized to a high controls without inhibitor, and low controls without enzyme.
pIC50: −log10 of the molar value.
Label not fulfilled if pIC50 falls below 6; label fulfilled in every other case.

CCC1(N)CCN(c2cnc3c(-c4ccnc(N)c4Cl)n[nH]c3n2)CC1; fulfilled
CC1(N)CCN(c2cnc3c(-c4cccnc4Cl)n[nH]c3n2)CC1; not fulfilled
CC1(CN)CCN(c2cnc3c(-c4cc(Cl)cc(Cl)c4)n[nH]c3n2)CC1; fulfilled
COc1cccc(-c2n[nH]c3nc(N4CCC(C)(CN)CC4)cnc23)c1Cl; fulfilled
Cc1c(Cl)cccc1-c1n[nH]c2nc(N3CCC4(CCC[C@H]4N)CC3)cnc12; fulfilled

Prompt line: Kindly determine if pIC50 recorded for `CC1(CN)CCN(c2cnc3c(-c4ccc(Cl)c(Cl)c4)n[nH]c3n2)CC1` is above or exactly 6.
Response line: fulfilled

Prompt line: Tell me whether pIC50 is at least 6 here: `Cc1ncccc1-c1n[nH]c2nc(N3CCC(C)(CN)CC3)cnc12`
Response line: not fulfilled

---

- System: Phospho-ERK levels in KYSE-520 cells
- assay_info: pERK AlphaScreen Protocol
- Assay type: cell-based
- setup_conditions: Homo sapiens, KYSE-520, 2 h, KYSE-520 cells, 2 hr compound incubation, phospho-ERK1/2 AlphaScreen SureFire; read-out: PERK Avg IC50
observable: pIC50
Lab note — pIC50 values are minus log10 of concentrations in M.

Worked cases, pIC50 given:
N[C@@H]1CCCC12CCN(c1cnc3c(-c4ccc(F)c(Cl)c4)n[nH]c3n1)CC2 [Example 47]; 6.46
CC1(N)CCN(c2cnc3c(-c4cccc(F)c4Cl)n[nH]c3n2)CC1 [Example 24]; 6.85
NCC1(O)CCN(c2cnc3c(-c4cc(N)ncc4Cl)n[nH]c3n2)CC1 [Example 134]; 5.70

Measured pIC50 of Nc1nccc(-c2n[nH]c3nc(N4CCC5(CCC[C@H]5N)CC4)cnc23)c1Cl [Example 130] : 7.19
